Each record here notes measured koff.
Target: Prolyl endopeptidase FAP (Homo sapiens)
Sequence (Q12884 whole entry): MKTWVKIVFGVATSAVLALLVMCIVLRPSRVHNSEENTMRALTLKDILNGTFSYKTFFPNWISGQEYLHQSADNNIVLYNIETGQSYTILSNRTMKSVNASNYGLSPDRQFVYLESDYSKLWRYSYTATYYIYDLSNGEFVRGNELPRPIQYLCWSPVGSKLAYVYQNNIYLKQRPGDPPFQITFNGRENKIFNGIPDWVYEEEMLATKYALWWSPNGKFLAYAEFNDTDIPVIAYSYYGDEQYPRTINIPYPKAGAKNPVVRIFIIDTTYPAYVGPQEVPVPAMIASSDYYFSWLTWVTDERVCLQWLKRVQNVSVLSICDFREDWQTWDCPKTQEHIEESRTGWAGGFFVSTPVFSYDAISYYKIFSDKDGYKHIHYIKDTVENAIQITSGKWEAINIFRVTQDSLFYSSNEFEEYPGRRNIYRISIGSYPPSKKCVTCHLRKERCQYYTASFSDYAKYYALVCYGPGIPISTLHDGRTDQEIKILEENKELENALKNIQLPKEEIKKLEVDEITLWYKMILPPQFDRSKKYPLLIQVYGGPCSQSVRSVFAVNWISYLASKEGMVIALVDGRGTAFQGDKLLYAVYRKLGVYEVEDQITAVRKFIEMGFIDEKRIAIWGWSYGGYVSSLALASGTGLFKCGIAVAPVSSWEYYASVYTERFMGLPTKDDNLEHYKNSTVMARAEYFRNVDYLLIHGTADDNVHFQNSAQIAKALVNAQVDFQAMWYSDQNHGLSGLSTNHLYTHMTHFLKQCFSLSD
Assay: hFAP Binding Assay
Value expressed in s⁻¹; do not type the unit.

Please review the entries below; each comes with its answer.
N#C[C@@H]1CSCN1C(=O)CNC(=O)c1ccnc2ccc(N3CC(OC(F)F)C3)cc12 [US20230312550, Example 136]: 5e-05
N#C[C@@H]1CSCN1C(=O)CNC(=O)c1ccnc2ccc(N3CCC[C@H]3C(F)(F)F)cc12 [US20230312550, Example 56]: 0.00011
N#C[C@@H]1CSCN1C(=O)CNC(=O)c1ccnc2ccc(-c3ccc(C(F)F)nc3)cc12 [US20230312550, Example 169]: 0.00096

For the molecule shown here, N#C[C@@H]1CSCN1C(=O)CNC(=O)c1ccnc2ccc(N3CCSCC3)cc12 [US20230312550, Example 3] , give the reported koff.
0.0004

What value of measured koff is listed for CO[C@@H]1CN(c2ccc3nccc(C(=O)NCC(=O)N4CSC[C@H]4C#N)c3c2)[C@H]1C [US20230312550, Example 30] ?
0.00022

Which koff reading was recorded for the molecule COCC[C@@H]1COCCN1c1ccc2nccc(C(=O)NCC(=O)N3CSC[C@H]3C#N)c2c1 [US20230312550, Example 95] ?
5.6e-05

---

Target: Prolyl endopeptidase FAP (Homo sapiens)
Assay: hFAP Binding Assay
Measure name: koff (s⁻¹)
Express your answer in s⁻¹, writing the number without its unit.

CC(F)(F)C1CN(c2ccc3nccc(C(=O)NCC(=O)N4CSC[C@H]4C#N)c3c2)C1: 0.00012
C[C@H]1CCN(c2ccc3nccc(C(=O)NCC(=O)N4CSC[C@H]4C#N)c3c2)C1=O (single isomer, unassigned): 0.0001

Query compound follows.
I'd like to know its koff. The compound in question is N#C[C@@H]1CSCN1C(=O)CNC(=O)c1ccnc2ccc(N3CC4(CCCC4(F)F)C3)cc12
7.8e-05

Cited source: BindingDB's records for patent US20230312550
